// compounds with IC50 on Coagulation factor VII (Homo sapiens, UniProt P08709), multi-source literature
System under test: Coagulation factor VII (Homo sapiens, UniProt P08709)
Sequence (P08709 whole entry): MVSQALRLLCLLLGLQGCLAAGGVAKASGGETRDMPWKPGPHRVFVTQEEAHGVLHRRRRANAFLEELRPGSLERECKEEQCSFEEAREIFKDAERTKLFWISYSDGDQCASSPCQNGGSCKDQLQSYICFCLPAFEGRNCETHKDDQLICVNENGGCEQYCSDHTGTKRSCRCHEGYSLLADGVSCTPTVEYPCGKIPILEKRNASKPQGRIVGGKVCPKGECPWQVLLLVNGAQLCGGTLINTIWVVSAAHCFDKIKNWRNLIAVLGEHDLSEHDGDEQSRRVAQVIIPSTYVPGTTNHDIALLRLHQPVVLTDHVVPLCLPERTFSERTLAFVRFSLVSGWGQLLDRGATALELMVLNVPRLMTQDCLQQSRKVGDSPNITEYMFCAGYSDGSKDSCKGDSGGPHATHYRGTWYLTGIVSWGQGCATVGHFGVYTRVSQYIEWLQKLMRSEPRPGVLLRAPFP
Hi! Could you tag entries with IC50 below 2000 nM as YES, and those at or above as NO? Much appreciated.

Consider the following illustrative entries.
O=C(NCC1CCNCC1)c1cc(NS(=O)(=O)Cc2ccccc2)ccc1Sc1ccccc1
NO
NC1=NCCSc2cc(CNC(=O)Cn3c(-c4cccc(N)c4)c(Cl)nc(NC4CCC4)c3=O)ccc21
NO
CCCCNC(=O)c1ccn2c(NCc3ccc(NC(=N)N)cc3)cnc2c1
NO
NC(N)=NCCC[C@H](NC(=O)[C@H](Cc1ccc([N+](=O)[O-])cc1)NC(=O)[C@@H](Cc1ccccc1)NS(=O)(=O)Cc1ccccc1)C(=O)c1nccs1
NO
CC1(C)COc2c(COc3ccccc3CC(=O)O)cc(-c3ccc4c(c3)[C@H](N)CO4)cc21
NO
COc1ccc(-c2ccc(C(=O)N[C@H](CO)C(C)(C)C)cc2C(=O)O)c(C(=O)Nc2cccc(C(N)=O)c2)n1
YES
N#Cc1ccc(C[C@H](NC(=O)[C@@H](Cc2ccccc2)NS(=O)(=O)Cc2ccccc2)C(=O)N[C@@H](CCCNC(=N)N)C(=O)c2nccs2)cc1
YES
Cc1cccc(C[C@H](NC(=O)[C@@H](Cc2ccccc2)NS(=O)(=O)Cc2ccccc2)C(=O)N[C@@H](CCCNC(=N)N)C(=O)c2nccs2)c1
YES

Kindly consider the entry below.
I wonder whether N=C(N)NCCC[C@H](NC(=O)[C@H](COCc1ccccc1)NC(=O)[C@@H](Cc1ccccc1)NS(=O)(=O)Cc1ccccc1)C(=O)c1nccs1 has IC50 below 2000 nM. Can you tell? YES

* * *

// compounds with IC50 on UniProtKB P08709, multi-source literature
Write down the numeric answer in nM and omit the unit.

CC[C@@H]1CC(C(=O)NCc2ccc(C(=N)N)cc2)N2C(=O)[C@](N)(Cc3ccccc3)C[C@H](OC)[C@H]12 (some centres not stated)
420
N=C(N)NCCC[C@H](NC(=O)[C@H](Cc1ccccc1)NC(=O)[C@@H](Cc1ccccc1)NS(=O)(=O)Cc1ccccc1)C(=O)c1nccs1
42
N=C(N)NCCC[C@H](NC(=O)[C@H](CC(=O)OC1CCCCC1)NC(=O)[C@@H](Cc1ccccc1)NS(=O)(=O)Cc1ccccc1)C(=O)c1nccs1
3180

Requested field: IC50. Item: N=C(N)NCCC[C@H](NC(=O)[C@H](Cc1csc2ccccc12)NC(=O)[C@@H](Cc1ccccc1)NS(=O)(=O)Cc1ccccc1)C(=O)c1nccs1 500

Also check N=C(N)NCCC[C@H](NC(=O)[C@H](Cc1ccccc1F)NC(=O)[C@@H](Cc1ccccc1)NS(=O)(=O)Cc1ccccc1)C(=O)c1nccs1 90
